Kindly state Emax for each of the entries shown.
Target: Protein cereblon/Interleukin-1 receptor-associated kinase 4 (Homo sapiens, UniProt Q9NWZ3+Q96SW2)
Assay: Protac activity at E3 ubiquitin ligase/IRAK4 in human MCF7 cells assessed as IRAK4 degradation after 24 hrs by Western blot analysis relative to control
Assay type: cell-based
Sequence (Q96SW2 whole entry, looked up): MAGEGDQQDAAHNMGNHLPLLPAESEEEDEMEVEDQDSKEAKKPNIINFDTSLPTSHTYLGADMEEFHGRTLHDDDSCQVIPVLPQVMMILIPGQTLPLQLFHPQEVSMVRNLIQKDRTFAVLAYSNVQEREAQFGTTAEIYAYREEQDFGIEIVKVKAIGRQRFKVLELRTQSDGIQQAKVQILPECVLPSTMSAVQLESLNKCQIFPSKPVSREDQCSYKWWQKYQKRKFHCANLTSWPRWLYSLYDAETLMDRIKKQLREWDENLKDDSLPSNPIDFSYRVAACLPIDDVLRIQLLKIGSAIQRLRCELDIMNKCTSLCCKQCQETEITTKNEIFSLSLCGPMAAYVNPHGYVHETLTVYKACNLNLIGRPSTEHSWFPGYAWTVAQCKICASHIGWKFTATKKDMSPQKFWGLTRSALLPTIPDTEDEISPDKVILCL
Sequence (Q9NWZ3 whole entry, looked up): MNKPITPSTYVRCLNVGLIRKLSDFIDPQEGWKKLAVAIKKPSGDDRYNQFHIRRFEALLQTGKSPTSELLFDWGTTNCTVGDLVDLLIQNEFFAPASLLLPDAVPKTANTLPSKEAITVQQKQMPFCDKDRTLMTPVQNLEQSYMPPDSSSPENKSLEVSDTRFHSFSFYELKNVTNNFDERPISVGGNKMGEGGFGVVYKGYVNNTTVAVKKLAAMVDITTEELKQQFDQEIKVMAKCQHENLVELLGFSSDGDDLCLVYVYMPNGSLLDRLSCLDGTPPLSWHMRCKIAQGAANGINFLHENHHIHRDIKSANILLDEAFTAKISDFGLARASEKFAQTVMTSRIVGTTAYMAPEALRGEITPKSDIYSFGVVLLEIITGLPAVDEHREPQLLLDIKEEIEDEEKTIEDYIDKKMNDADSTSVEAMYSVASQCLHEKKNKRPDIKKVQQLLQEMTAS

Worked examples follow.
- COc1cc2nn(C3CCN(CCOCCOc4ccc5c(c4)C(=O)N(C4CCC(=O)NC4=O)C5=O)CC3)cc2cc1NC(=O)c1cccc(C(F)(F)F)n1 (stereo not given): > 50%
- O=C1CCC(N2C(=O)c3ccc(OCCOCCOCCN4CCN(Cc5ccc6c(c5)nc(NC(=O)c5cccc(C(F)(F)F)c5)n6[C@H]5CC[C@@H](CO)CC5)CC4)cc3C2=O)C(=O)N1 (stereo not given in full): > 70%
- O=C1CCC(N2C(=O)c3ccc(N4CCC(CN5CCN(Cc6ccc7c(c6)nc(NC(=O)c6cccc(C(F)(F)F)c6)n7[C@H]6CC[C@@H](CO)CC6)CC5)CC4)cc3C2=O)C(=O)N1 (stereo not given in full): > 70%
- O=C1CCC(N2C(=O)c3ccc(OC4CCC(CN5CCN(Cc6ccc7c(c6)nc(NC(=O)c6cccc(C(F)(F)F)c6)n7[C@H]6CC[C@@H](CO)CC6)CC5)CC4)cc3C2=O)C(=O)N1 (stereo not given in full): > 70%

Tell me measured Emax for COc1cc2nn(C3CCN(CCOCCOc4ccc5c(c4)CN(C4CCC(=O)NC4=O)C5=O)CC3)cc2cc1NC(=O)c1cccc(C(F)(F)F)n1 (stereo not given) please. > 50%

###

pIC50: −log10 of the molar value.
System: Interleukin-1 receptor-associated kinase 4 (Homo sapiens) | Read-out: pIC50
Sequence (Q9NWZ3 whole entry): as the sequence (Q9NWZ3 whole entry, looked up) above

* COc1cc2nn(C3CCN(CCOCCOc4ccc5c(c4)CN(C4CCC(=O)NC4=O)C5=O)CC3)cc2cc1NC(=O)c1cccc(C(F)(F)F)n1 (configuration not stated) | > 7.52

Continue with the molecule presented below.
Tell me measured pIC50 for O=C1CCC(N2C(=O)c3ccc(OC4CCC(CN5CCN(Cc6ccc7c(c6)nc(NC(=O)c6cccc(C(F)(F)F)c6)n7[C@H]6CC[C@@H](CO)CC6)CC5)CC4)cc3C2=O)C(=O)N1 (some centres not stated) please. > 7.52

###

Molecular target: Protein cereblon/Interleukin-1 receptor-associated kinase 4 (Homo sapiens, UniProt Q9NWZ3+Q96SW2)
Assay: Protac activity at E3 ubiquitin ligase/IRAK4 in human MCF7 cells assessed as IRAK4 degradation after 24 hrs by Western blot analysis
Assay type: cell-based
Sequence (Q9NWZ3 whole entry): as the sequence (Q9NWZ3 whole entry, looked up) above
Sequence (Q96SW2 whole entry): as the sequence (Q96SW2 whole entry, looked up) above
Observable: DC50

Worked examples follow.
- O=C1CCC(N2C(=O)c3ccc(OCCOCCOCCN4CCN(Cc5ccc6c(c5)nc(NC(=O)c5cccc(C(F)(F)F)c5)n6[C@H]5CC[C@@H](CO)CC5)CC4)cc3C2=O)C(=O)N1 (stereo not given in full): < 30 nM
- COc1cc2nn(C3CCN(CCOCCOc4ccc5c(c4)C(=O)N(C4CCC(=O)NC4=O)C5=O)CC3)cc2cc1NC(=O)c1cccc(C(F)(F)F)n1 (stereo not given): < 30 nM
- O=C1CCC(N2C(=O)c3ccc(OC4CCC(CN5CCN(Cc6ccc7c(c6)nc(NC(=O)c6cccc(C(F)(F)F)c6)n7[C@H]6CC[C@@H](CO)CC6)CC5)CC4)cc3C2=O)C(=O)N1 (stereo not given in full): 30 to 100 nM
- O=C1CCC(N2C(=O)c3ccc(N4CCC(CN5CCN(Cc6ccc7c(c6)nc(NC(=O)c6cccc(C(F)(F)F)c6)n7[C@H]6CC[C@@H](CO)CC6)CC5)CC4)cc3C2=O)C(=O)N1 (stereo not given in full): < 30 nM

Continue with the compound presented below.
Tell me measured DC50 for COc1cc2nn(C3CCN(CCOCCOc4ccc5c(c4)CN(C4CCC(=O)NC4=O)C5=O)CC3)cc2cc1NC(=O)c1cccc(C(F)(F)F)n1 (stereo not given) please. < 30 nM
